- Tested on: 4T1 murine breast cancer cells
- Procedure Summary: Example S: in vitro anticancer screen, 4T1 cells, Wst1
- Format: cell-based, mouse
- Condition Set: Mus musculus, 4T1, 18 h, 5 μM, 18 hr, Wst1; read-out: 4T1 5 μM, percent of cancer cell survival relative to vehicle treated cells
Readout Kind: viability at 5 µM (%)
Numbers only; they are read as %.

// solved cases for viability at 5 µM follow
| Molecule | Units Symbol | viability at 5 µM |
| --- | --- | --- |
| CCCCCCOCCCCCCCCNc1cnc2ccccc2n1 [FU, N-[8-(Hexyloxy)octyl]quinoxalin-2-amine] | % | 106 |
| CCCCCCOc1cccc(OCCCNc2ccnc3ccccc23)c1 [AZ] | % | 29.1 |
| CCCCCCOCCCCCCCCNc1cccnc1 [FO, N-[8-(Hexyloxy)octyl]pyridin-3-amine] | % | 146 |
| CCCCCCOc1ccccc1OCCCNc1ccnc2ccccc12 [CQ] | % | 57.9 |
| O=C(NCCCCCCCCNc1ccnc2ccccc12)c1ccccn1 [EE] | % | 18.1 |

IN: Please report the recorded viability at 5 µM for CCCCCCCCCCOCCCCn1cnc2cnc3ccccc3c21 [GA] .
OUT: 35.5

IN: I would be grateful if you could share the reported viability at 5 µM for CCCCCCOc1cccc(Nc2ccnc3ccccc23)c1 [DN, N-[3-(Hexyloxy)phenyl]quinolin-4-amine] .
OUT: 56.7

IN: // returns reported viability at 5 µM for input COc1cccc(C(=O)NCCCCCCCCNc2ccnc3ccccc23)c1 [DZ]
OUT: 17.4

IN: Consider the molecule shown here: CCCCCCOc1ccc(Nc2ccnc3ccccc23)cc1 [DL, N-[4-(Hexyloxy)phenyl]quinolin-4-amine] What is its recorded viability at 5 µM?
OUT: 21

IN: Requested field: viability at 5 µM. Item: CCCCCCCCOCCCCCCn1cnc2cnc3ccccc3c21 [FI]
OUT: 26.7

IN: Look up viability at 5 µM: c1ccc(COc2ccc(Nc3ccnc4ccccc34)cc2)cc1 [DJ, N-[4-(Benzyloxy)phenyl]quinolin-4-amine]
OUT: 66.9

IN: Which measured viability at 5 µM value corresponds to Cc1cccc(OCCCCCCCCNc2ccnc3ccccc23)c1 [BE, N-[8-(m-Tolyloxy)octyl]quinolin-4-amine] ?
OUT: 18.7

IN: I am curious: what viability at 5 µM value has been reported for c1ccc(OCCCCCCNc2ccnc3ccccc23)cc1 [AR, N-(6-Phenoxyhexyl)quinolin-4-amine] ?
OUT: 47

IN: What does the record list as viability at 5 µM for c1ccc2c(NCCCCCCCCNc3ccnc4ccccc34)ccnc2c1 [Compound AI] ?
OUT: 17.9

IN: Look up viability at 5 µM for this molecule: CCCCCCOc1ccccc1Nc1ccnc2ccccc12 [DP, N-[2-(Hexyloxy)phenyl]quinolin-4-amine]
OUT: 25.4

IN: What value of measured viability at 5 µM is listed for CCCCCCOCCCCCCCCNc1nccc2ccccc12 [FS, N-[8-(Hexyloxy)octyl]isoquinolin-1-amine] ?
OUT: 107

IN: Returns the measured viability at 5 µM for the input molecule. Input: CCCCCCOCCCOCCCCCNc1ccnc2ccccc12 [BB]
OUT: 41.1

IN: Reported viability at 5 µM for CCCCCCOCCCCCCCC(=O)NCc1ccncc1 [CA] : what is it?
OUT: 109
